target: ZFP SBS#576 (synthetic); experiment: EMSA; conditions: tags: MBP fusion
Sequence (chain, as listed by the source): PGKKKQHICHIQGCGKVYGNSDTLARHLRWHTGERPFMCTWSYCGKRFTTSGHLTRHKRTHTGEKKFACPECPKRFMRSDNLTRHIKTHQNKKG
REPORTED_PROPERTY: pKd
One number for each entry, as −log10 of the molar value.

q: Bench note: what pKd did GAGGGTGTTG (dsDNA) DNA 1: GAGGGTGTTG DNA 2: CAACACCCTC show?
a: 6.70
